Where do the numbers come from? From patent US20100256357A1.

biological target: human CA-IV (Homo sapiens); construct: made in house; host or cells: Escherichia coli BL21(DE3); assay: Carbonic Anhydrase-IV (CA-IV) Fluorescence Polarization Assay-IC50 Determination; assay type: binding; conditions: read-out: CA-IV IC50
So basically, if IC50 comes in under 0.2 µM it's condition met, and if it's 0.2 µM or more it's condition not met.

                                   compound                cat
0  NS(=O)(=O)c1ccc(-n2nc(C(=O)N3CC4CCC3C4)nc2Cc2ccccc2)cc1 (centres unmarked) [Example R-8]      condition met
1  CCCCCN(C)C(=O)c1nc(Cc2ccccc2)n(-c2ccc(S(N)(=O)=O)cc2)n1 [Example R-1]      condition met
2  COC[C@H](C)NC(=O)c1nc(Cc2ccccc2)n(-c2ccc(S(N)(=O)=O)cc2)n1 [Example R-21]  condition not met
3  CN(CC1CC1)C(=O)c1nc(Cc2ccccc2)n(-c2ccc(S(N)(=O)=O)cc2)n1 [Example R-20]  condition not met
4  CCCCN(C)C(=O)c1nc(Cc2ccccc2)n(-c2ccc(S(N)(=O)=O)cc2)n1 [Example R-3]      condition met
5  NS(=O)(=O)c1ccc(-c2nc(C(F)(F)F)cn2Cc2cccc(OC(F)F)c2)cc1 [JJJ-4]  condition not met
6  CN(C(=O)c1nc(Cc2ccccc2)n(-c2ccc(S(N)(=O)=O)cc2)n1)C1CCCCC1 [Example R-25]  condition not met

----------
Examples of compounds with documented IC50 follow.
target: human CA-IV (Homo sapiens, UniProt P22748); construct: made in house; host or cells: Escherichia coli BL21(DE3); assay: Carbonic Anhydrase-IV (CA-IV) Fluorescence Polarization Assay-IC50 Determination; assay type: binding; settings: read-out: IC50_CAIV
Sequence (P22748 19-284 limits assumed): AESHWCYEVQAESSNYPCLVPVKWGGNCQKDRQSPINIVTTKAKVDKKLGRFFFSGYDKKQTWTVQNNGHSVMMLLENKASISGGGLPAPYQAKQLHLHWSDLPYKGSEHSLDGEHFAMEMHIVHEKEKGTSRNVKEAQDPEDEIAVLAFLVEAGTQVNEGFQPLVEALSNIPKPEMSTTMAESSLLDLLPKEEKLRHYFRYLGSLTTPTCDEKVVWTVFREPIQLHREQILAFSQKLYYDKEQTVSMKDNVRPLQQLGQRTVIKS
RECORDED_ENDPOINT: IC50

>>> df
                             molecule_smiles  measurement
 0  CCOC(=O)c1cc(C)n(-c2ccc(S(N)(=O)=O)cc2)n1    ≥ 5000 nM
 1  Cc1cc(C(=O)N2CCOCC2)nn1-c1ccc(S(N)(=O)=O)cc1CNCc1ccccc1    > 5000 nM
 2    NS(=O)(=O)c1ccc(-n2nc(CO)c3c2CCCC3)cc1    ≥ 5000 nM
 3  NS(=O)(=O)c1ccc(-n2nc(C(F)(F)F)c3c2CCNC3)c(C(=O)NCc2ccccc2)c1    > 5000 nM
 4  CCNCc1cc(S(N)(=O)=O)ccc1-n1nc(C(F)(F)F)c2c1CCCC2    ≥ 5000 nM
 5  NS(=O)(=O)c1ccc(-n2nc(CN3CCOCC3)cc2Cc2ccc(Cl)cc2)cc1       563 nM
 6  CN(C)[C@H]1CCN(C(=O)c2nc(Cc3ccccc3)n(-c3ccc(S(N)(=O)=O)cc3F)n2)C1       429 nM
 7  NS(=O)(=O)c1ccc(-n2nc(CO)cc2Cc2ccc(Br)cc2)c(F)c1       468 nM
 8     Cc1cc(C(=O)O)nn1-c1ccc(S(N)(=O)=O)cc1    ≥ 5000 nM
 9  NS(=O)(=O)c1ccc(-n2nc(CO)cc2Cc2ccccc2)c(F)c1       372 nM
10     Cc1nc(C(=O)O)nn1-c1ncc(S(N)(=O)=O)cn1    > 1000 nM
11  CC(C)OC(=O)c1nc(Cc2ccccc2)n(-c2ccc(S(N)(=O)=O)cc2)n1       486 nM
12  CCNC(=O)c1cc(C)n(-c2ccc(S(N)(=O)=O)cc2C(=O)NCC)n1    > 5000 nM
